For each of the compounds below, state its IC50.
# assaySystem: SUV39H2 (Homo sapiens (Human), UniProt Q9H5I1)
# Sequence (Q9H5I1 whole entry): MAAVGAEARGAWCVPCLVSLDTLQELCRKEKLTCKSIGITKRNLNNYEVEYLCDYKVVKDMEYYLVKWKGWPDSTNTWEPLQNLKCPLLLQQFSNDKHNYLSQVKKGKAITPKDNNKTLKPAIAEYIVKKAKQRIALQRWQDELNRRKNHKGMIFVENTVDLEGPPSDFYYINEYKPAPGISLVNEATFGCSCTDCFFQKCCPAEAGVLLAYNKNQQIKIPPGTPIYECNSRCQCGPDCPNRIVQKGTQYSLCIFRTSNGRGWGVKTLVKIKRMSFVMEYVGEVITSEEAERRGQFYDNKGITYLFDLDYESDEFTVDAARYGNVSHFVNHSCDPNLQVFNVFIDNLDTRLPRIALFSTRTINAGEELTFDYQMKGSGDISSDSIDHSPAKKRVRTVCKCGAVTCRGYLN
# assayExplanation: biochemical
# Assay type: biochemical
# studyConditions: 3H-SAM 100 nM, H3 Histone Peptide 350 nM, room temperature 3 hours
State just the number; it will be interpreted in µM.

Look at this compound and give its reported IC50. COc1cc(OC)c(-c2cn3ccc(N[C@H]4CC[C@H](Nc5nccc(N6CCOCC6)n5)CC4)cc3n2)cc1Cl [Example 406] 0.037

Moving on to COc1cc(OC)c(-c2cn3ccc(N[C@H]4CC[C@H](NCc5ccc(N(C)C)cc5)CC4)cc3n2)cc1Cl [Example 419] 0.082

Similarly, COc1cc(OC)c(-c2cn3ccc(NC4CCN(Cc5ccc([N+](=O)[O-])o5)CC4)cc3n2)cc1Cl [Example 343] ? 0.0479

Here is the next compound: COc1cc(OC)c(-c2cn3ccc(N4CCN(c5ccnc(N6CCC(N)C6)n5)CC4)cc3n2)cc1Cl (stereo not shown) [Example 354] 0.0129

Moving on to the next compound: COc1cc(OC)c(-c2cn3ccc(N4CC[C@H](NCc5ccc(NC(=O)OC(C)(C)C)cc5)C4)cc3n2)cc1Cl [Example 386] 0.0248

Subsequent entry: COc1cc(OC)c(-c2cn3ccc(N[C@H]4CC[C@H](CN5CCN(c6ncccn6)CC5)CC4)cc3n2)cc1Cl [Example 316] 0.077

Input COc1cc(OC)c(-c2cn3ccc(N4CCN(c5nc(N)nc(NC(C)(C)C)n5)CC4)cc3n2)cc1Cl [Example 446] 0.0974

###

# assaySystem: UniProt Q9H5I1
# studyConditions: read-out: IC50 (μM) Suv 39H2 assay; enzyme assay
Structures can show the parent of a compound that is named as a salt.
The label 1 is reserved for IC50 strictly under 0.01 µM; -1 covers values equal to or above it.

Is IC50 strictly under 0.01 µM for the entry CCOC(=O)CCN1CCN(c2ccn3cc(-c4cc(Cl)c(OC)cc4OC)nc3c2)CC1 [Example 132] ? -1

And COc1cc(OC)c(-c2cn3ccc(-c4ccc(C(=O)O)cc4)cc3n2)cc1Cl [Example 246] ? -1

Another compound to check: COc1cc(OC)c(-c2cn3ccc(O)cc3n2)cc1Cl [Example 20] -1

Also need COc1cc(OC)c(-c2cn3ccc(N4CCN(S(=O)(=O)Cc5ccccc5)CC4)cc3n2)cc1Cl [Example 179] , thanks. -1

Please do the same for COc1cc(OC)c(-c2cn3ccc(N4CCN(S(=O)(=O)C5CC5)C(CO)C4)cc3n2)cc1Cl (stereo not shown) [Example 236] as well. 1

And what about the compound COc1cc(OC)c(-c2cn3ccc(N4CCCC4)cc3n2)cc1Cl [Example 4, hydrobromide] ? 1

Quick one: COc1cc(OC)c(-c2cn3ccc(N4CC[C@H](NCc5ccccc5)C4)cc3n2)cc1Cl [Example 301] -1

Now give it for COc1cc(OC)c(-c2cn3ccc(N4CCN(c5ccccc5)CC4)cc3n2)cc1Cl [Example 282] too. -1

And for COc1cc(OC)c(-c2cn3ccc(N[C@H]4CC[C@H](CN5CCN(Cc6ccccc6)CC5)CC4)cc3n2)cc1Cl [Example 278, 2,2,2-trifluoroacetate] ? -1

Moving on to COc1cc(OC)c(-c2cn3ccc(N4CC[C@H](NCc5cccnc5)C4)cc3n2)cc1Cl [Example 300] -1

Repeat for the following compound: COc1cc(OC)c(-c2cn3ccc(N4CC[C@H](NCc5ccc(C)cc5)C4)cc3n2)cc1Cl [Example 305] -1

Record: COc1cc(OC)c(-c2cn3cc(NCCN)c(C)cc3n2)cc1Cl [Example 78] 1

Likewise for COc1cc(OCCCN(C)C)c(-c2cn3ccc(N4CCCN(C(=O)OC(C)(C)C)CC4)cc3n2)cc1Cl [Example 211] ? -1

Queued: COc1cc(OC)c(-c2cn3ccc(N4CCN(c5cnccn5)CC4)cc3n2)cc1Cl [Example 285] 1

Query COc1cc(OC)c(-c2cn3ccc(N4CCN(C(=O)C5CCCC5)CC4)cc3n2)cc1Cl [Example 241] next 1

Where do these numbers come from? They come from patent US10508109B2.
